src = PubChem BioAssay AID2060512

Here the recorded viability, T/C is given for each entry.
Tested on: 186277-243-T-J2-PDC complex spheroid viability;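 note: spheroids exposed to drugs for 7 days; 100% = DMSO vehicle control viability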
methodSummary: Anticancer human tumor 186277-243-T-J2-PDC patient-derived colon adenocarcinoma cell line growth inhibition [GQUAD]
experimentalParameters: second compound 3.16 µM; first compound 0.0316 µM; stronger effect = lower value
Text: DNA G-quadruplex Stabilizer Agents in Combinations in Complex Spheroids A high-throughput screen of multi-cell type tumor spheroids was designed to identify active combinations of DNA G-quadruplex stabilizer agents and targeted small molecules. […] Compounds. […] If the clinical Cmax for an agent had not been determined, the highest concentration tested was 10 microM. […]
Numbers only here, please. The scale is %.

Look over these answered cases.
>  <compound>
O=c1[nH]cc(F)c(=O)[nH]1 + CN(C)c1ccc(Nc2c3ccc(NC(=O)CCN4CCCC4)cc3nc3cc(NC(=O)CCN4CCCC4)ccc23)cc1

>  <viability, T/C, %>
97.2

$$$$
>  <compound>
C=CC(=O)N1CCN(c2nc(=O)n(-c3c(C)ccnc3C(C)C)c3nc(-c4c(O)cccc4F)c(F)cc23)C(C)C1 (stereo not given) + CN(C)c1ccc(Nc2c3ccc(NC(=O)CCN4CCCC4)cc3nc3cc(NC(=O)CCN4CCCC4)ccc23)cc1

>  <viability, T/C, %>
95.3

$$$$
>  <compound>
Cc1cccc(N(C)C(=O)C2C(O)CCN2c2nc(C)cc(C(F)(F)F)c2C#N)c1 (stereo not given) + Cc1cnc(CNC(=O)c2c(=O)c3ccc(N4CCCN(C)CC4)nc3n3c2sc2ccccc23)cn1

>  <viability, T/C, %>
42.2

$$$$
>  <compound>
C=CCn1c(=O)c2cnc(Nc3ccc(N4CCN(C)CC4)cc3)nc2n1-c1cccc(C(C)(C)O)n1 + Cc1cnc(CNC(=O)c2c(=O)c3ccc(N4CCCN(C)CC4)nc3n3c2sc2ccccc23)cn1

>  <viability, T/C, %>
34.5

$$$$

Next:
-- ask Look up and state reported viability, T/C for COc1cccc2c1C(=O)c1c(O)c3c(c(O)c1C2=O)CC(O)(C(=O)CO)CC3OC1CC(N)C(O)C(C)O1 (stereo not given) + CN(C)c1ccc(Nc2c3ccc(NC(=O)CCN4CCCC4)cc3nc3cc(NC(=O)CCN4CCCC4)ccc23)cc1
-- reply 109
